I'd be grateful if you could share measured inhibition at 5 mg/kg for these entries.
# test_system: MAGL (Mus musculus, UniProt O35678)
# Construct: mouse brain membrane fraction or cell lysates for mouse assays; from tissue
# Sequence (O35678 whole entry): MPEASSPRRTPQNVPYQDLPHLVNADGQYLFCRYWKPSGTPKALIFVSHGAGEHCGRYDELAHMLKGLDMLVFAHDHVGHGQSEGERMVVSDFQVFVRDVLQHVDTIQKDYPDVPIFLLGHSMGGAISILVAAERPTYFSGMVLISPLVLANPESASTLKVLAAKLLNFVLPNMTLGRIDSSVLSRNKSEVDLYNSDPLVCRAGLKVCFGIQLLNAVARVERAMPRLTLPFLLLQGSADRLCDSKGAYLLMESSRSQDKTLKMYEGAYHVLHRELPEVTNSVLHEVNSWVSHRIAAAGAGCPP
# assay: Mouse brain proteomes from inhibitor treated mice, MAGL
# Type: in vivo
# condition_summary: oral gavage, brain 4 h after administration, read-out: MAGL % inh. 5 mg/kg (mouse)

NC(=O)c1cnn(C(=O)N2CC[C@]3(CCN(Cc4ccc(N5CCOCC5)cc4C(F)(F)F)C3)C2)c1 | ≥ 75%

Each compound below has a reported value. Please supply its inhibition at 5 mg/kg.
1. NC(=O)c1cnn(C(=O)N2CCC3(CCN(Cc4cccc(C(F)(F)F)c4)C3)C2)c1 (stereo not drawn)
2. O=C(N1CC2CN(Cc3ccccc3Cl)CC2C1)n1cc(Cl)cn1 (stereo not drawn)
3. O=C(N1CCC2(CCN(Cc3ccccc3Cl)C2)C1)n1cc(Cl)cn1 (stereo not drawn)
4. NC(=O)c1cnn(C(=O)N2CCC3(CCN(Cc4cc(Cl)cc(C(F)(F)F)c4)C3)C2)c1 (stereo not drawn)
5. CN(Cc1ccc(C(F)(F)F)cc1)[C@@H]1C[C@@H]2CN(C(=O)n3cc(C(N)=O)cn3)C[C@@H]2C1
6. CN(Cc1ccccc1C(F)(F)F)[C@@H]1C[C@@H]2CN(C(=O)n3cc(C(N)=O)cn3)C[C@@H]2C1
7. Cc1cc(-c2ccccc2)ccc1CN1CCC2(CCN(C(=O)n3cc(Cl)cn3)C2)C1 (stereo not drawn)
8. O=C(c1cnn(C(=O)N2CCC3(CCN(Cc4ccc(N5CCOCC5)cc4C(F)(F)F)C3)C2)c1)N1CCCC1 (stereo not drawn)

Result:
1: ≥ 75%; 2: 25 to 50%; 3: 0 to 25%; 4: ≥ 75%; 5: ≥ 75%; 6: ≥ 75%; 7: ≥ 75%; 8: 0 to 25%

src = patent US10385057B2
